The compounds listed here are annotated with their inhibition.
Target: Protein deacetylase HDAC6 (Homo sapiens) (UniProt Q9UBN7)
Sequence (whole entry): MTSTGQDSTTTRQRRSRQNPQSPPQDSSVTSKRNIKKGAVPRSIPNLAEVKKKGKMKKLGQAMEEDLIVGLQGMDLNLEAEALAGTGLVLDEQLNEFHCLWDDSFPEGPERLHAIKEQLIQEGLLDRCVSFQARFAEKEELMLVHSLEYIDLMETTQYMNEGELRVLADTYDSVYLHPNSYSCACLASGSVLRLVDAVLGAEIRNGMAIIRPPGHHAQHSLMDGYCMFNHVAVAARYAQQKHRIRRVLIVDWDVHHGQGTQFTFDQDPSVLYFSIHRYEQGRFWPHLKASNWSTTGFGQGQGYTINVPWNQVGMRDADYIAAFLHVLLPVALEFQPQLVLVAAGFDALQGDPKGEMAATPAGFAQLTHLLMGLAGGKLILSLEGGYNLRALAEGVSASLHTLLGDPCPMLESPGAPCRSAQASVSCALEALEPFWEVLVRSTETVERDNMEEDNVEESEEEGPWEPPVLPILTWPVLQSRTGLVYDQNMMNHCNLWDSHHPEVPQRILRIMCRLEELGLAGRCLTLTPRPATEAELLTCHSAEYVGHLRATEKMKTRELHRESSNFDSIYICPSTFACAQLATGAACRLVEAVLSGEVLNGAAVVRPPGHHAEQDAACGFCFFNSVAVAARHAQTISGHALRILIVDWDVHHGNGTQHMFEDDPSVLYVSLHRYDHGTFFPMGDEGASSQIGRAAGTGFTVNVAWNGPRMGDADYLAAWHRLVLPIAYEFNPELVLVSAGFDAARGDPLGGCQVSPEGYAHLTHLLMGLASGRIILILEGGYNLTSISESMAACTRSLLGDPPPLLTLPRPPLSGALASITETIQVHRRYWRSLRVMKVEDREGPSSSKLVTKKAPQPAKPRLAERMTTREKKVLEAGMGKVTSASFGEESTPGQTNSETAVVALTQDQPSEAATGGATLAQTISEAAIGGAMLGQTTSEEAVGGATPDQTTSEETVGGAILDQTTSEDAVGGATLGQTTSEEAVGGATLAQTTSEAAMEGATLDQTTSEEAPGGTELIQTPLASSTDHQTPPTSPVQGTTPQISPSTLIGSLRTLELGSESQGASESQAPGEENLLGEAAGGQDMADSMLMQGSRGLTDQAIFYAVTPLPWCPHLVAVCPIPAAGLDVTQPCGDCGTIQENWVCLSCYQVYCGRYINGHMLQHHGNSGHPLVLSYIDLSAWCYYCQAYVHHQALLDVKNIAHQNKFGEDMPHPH
Details: at 10 µM
The campaign covered roughly 5,600 compounds. About 390 (7%) showed an effect of 50% or more. Shown is part of a subset that was picked to be rich in strong results.
observation_type: inhibition (%)

{"columns": ["structure_notation", "system_tested", "observation_type", "observed_result"],
 "data": [
  ["Cn1cnc(-c2cc3nccc(Oc4ccc(NC(=S)NC(=O)Cc5ccccc5)cc4F)c3s2)c1", "Protein deacetylase HDAC6 (Homo sapiens) (UniProt Q9UBN7)", "inhibition", 28],
  ["CNC(=O)c1ccc(C)c(-n2c(C)cc(OCc3ccc(F)cc3F)c(Br)c2=O)c1", "Protein deacetylase HDAC6 (Homo sapiens) (UniProt Q9UBN7)", "inhibition", 72.6],
  ["C=CC(=O)Nc1cccc(Oc2nc(Nc3ccc(N4CCN(C)CC4)cc3)nc3ccsc23)c1", "Protein deacetylase HDAC6 (Homo sapiens) (UniProt Q9UBN7)", "inhibition", 14.3],
  ["CC(C)C[C@@H](C(=O)N[C@@H](Cc1ccc(OCc2ccccc2)cc1)C(=O)NC(C)(C)C)N(C)Cc1ccc(C(C)(C)C)cc1", "Protein deacetylase HDAC6 (Homo sapiens) (UniProt Q9UBN7)", "inhibition", 10.7],
  ["CN(C(=O)C(Cl)Cl)c1ccc(OC(=O)c2ccco2)cc1", "Protein deacetylase HDAC6 (Homo sapiens) (UniProt Q9UBN7)", "inhibition", 5.17],
  ["O=C(Nc1c[nH]nc1-c1nc2ccc(CN3CCOCC3)cc2[nH]1)NC1CC1", "Protein deacetylase HDAC6 (Homo sapiens) (UniProt Q9UBN7)", "inhibition", 32.3],
  ["CC[C@H]1OC(=O)[C@@](C)(F)C(=O)[C@H](C)[C@@H](O[C@@H]2O[C@H](C)C[C@H](N(C)C)[C@H]2O)[C@](C)(OC)C[C@@H](C)C(=O)[C@H](C)[C@H]2N(CCCCn3cc(-c4cccc(N)c4)nn3)C(=O)O[C@]12C", "Protein deacetylase HDAC6 (Homo sapiens) (UniProt Q9UBN7)", "inhibition", 17.2],
  ["COc1cc(NS(C)(=O)=O)ccc1Nc1c2ccccc2nc2ccccc12", "Protein deacetylase HDAC6 (Homo sapiens) (UniProt Q9UBN7)", "inhibition", 76.6],
  ["CCN(c1cc(C#CCN2CCOCC2)cc(C(=O)NCc2c(C)cc(C)[nH]c2=O)c1C)[C@H]1CC[C@H](N(C)CCOC)CC1", "Protein deacetylase HDAC6 (Homo sapiens) (UniProt Q9UBN7)", "inhibition", -8.25],
  ["O=C(O)C(=O)Cc1c[nH]c2ccccc12", "Protein deacetylase HDAC6 (Homo sapiens) (UniProt Q9UBN7)", "inhibition", 20.3],
  ["CN(C)Cc1ccc(S(=O)(=O)n2ccc(/C=C/C(=O)NO)c2)cc1", "Protein deacetylase HDAC6 (Homo sapiens) (UniProt Q9UBN7)", "inhibition", 101],
  ["O=C(O)CCc1nc2ccccc2[nH]1", "Protein deacetylase HDAC6 (Homo sapiens) (UniProt Q9UBN7)", "inhibition", 10.6],
  ["OCc1c[nH]c2ccccc12", "Protein deacetylase HDAC6 (Homo sapiens) (UniProt Q9UBN7)", "inhibition", 2.93]
]}
